molecular target: recombinant human DPP9 (Homo sapiens, UniProt Q86TI2); construct: purchased R&D Systems; assay: DPP9 inhibition, fluorogenic substrate H-Gly-Pro-AMC; format: biochemical; conditions: recombinant human DPP9
Sequence (Q86TI2 whole entry): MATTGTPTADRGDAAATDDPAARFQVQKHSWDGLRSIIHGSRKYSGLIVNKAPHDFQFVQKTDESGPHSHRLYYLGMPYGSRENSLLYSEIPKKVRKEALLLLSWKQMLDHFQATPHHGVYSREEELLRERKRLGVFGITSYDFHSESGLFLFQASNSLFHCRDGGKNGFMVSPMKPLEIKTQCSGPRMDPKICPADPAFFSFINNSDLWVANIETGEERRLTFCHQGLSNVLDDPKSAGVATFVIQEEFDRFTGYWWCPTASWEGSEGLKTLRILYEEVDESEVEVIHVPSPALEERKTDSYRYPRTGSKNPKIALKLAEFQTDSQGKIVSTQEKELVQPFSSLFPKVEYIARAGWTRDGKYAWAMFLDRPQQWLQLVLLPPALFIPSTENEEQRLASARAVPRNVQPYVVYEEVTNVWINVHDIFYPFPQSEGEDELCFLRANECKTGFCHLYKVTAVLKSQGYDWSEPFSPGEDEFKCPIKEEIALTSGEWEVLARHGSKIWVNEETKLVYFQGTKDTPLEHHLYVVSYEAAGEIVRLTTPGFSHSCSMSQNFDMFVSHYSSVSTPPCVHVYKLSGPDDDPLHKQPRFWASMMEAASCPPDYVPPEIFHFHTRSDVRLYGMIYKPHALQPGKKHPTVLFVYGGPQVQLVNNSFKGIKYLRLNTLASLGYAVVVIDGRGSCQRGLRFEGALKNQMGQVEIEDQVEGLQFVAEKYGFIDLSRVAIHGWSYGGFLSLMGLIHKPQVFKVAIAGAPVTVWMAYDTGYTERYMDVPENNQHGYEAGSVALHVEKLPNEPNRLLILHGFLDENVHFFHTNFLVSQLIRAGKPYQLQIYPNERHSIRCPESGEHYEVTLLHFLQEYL
quantity_kind: IC50 (µM)

N#C[C@@H]1C[C@H](F)CN1C(=O)CN1CC[C@@H](Nc2cccc3ncc(F)cc23)C1 :: 5.15

A. Cc1cnc2cccc(N[C@@H]3CCN(CC(=O)N4CCC[C@H]4C#N)C3)c2c1
B. COc1cnc2cccc(N[C@@H]3CCN(CC(=O)N4C[C@@H](F)C[C@H]4C#N)C3)c2c1
Input line: Would you mind telling me which has the lower recorded IC50 between A and B ? // return label of chosen record
Output line: B

a. N#C[C@@H]1C[C@H](F)CN1C(=O)CN1CCC(Oc2ccc3ccncc3c2)CC1
b. N#C[C@@H]1C[C@H](F)CN1C(=O)CN1CCC(Oc2ccnc3cc(F)ccc23)CC1
Input line: Rank a against b by their IC50 values and give the higher one. // return label of chosen record
Output line: a

I. CCN(c1cnc2ccccc2c1)C1CCN(CC(=O)N2C[C@@H](F)C[C@H]2C#N)CC1
II. CC(=O)Nc1ccc(N[C@H]2CCN(CC(=O)N3C[C@@H](F)C[C@H]3C#N)C2)c2cccnc12
Input line: Would you mind telling me which has the lower recorded IC50 between I and II ? // return label of chosen record
Output line: II
(II: 4.2 µM, I: 7.6 µM)
